Just for reference, patent US5312831A is where these values come from.

- Test system: CSF
- measurement.description: Serum colony stimulating factor (CSF) assay in mice
- Type: in vivo, mouse
- test.context: 1.0 mg/kg, serum 4 hours after injection
Recorded CSF production, CFU/100,000 Bone Marrow Cells for the following compounds

Would you please look over these solved cases?
* CCCCCCC(=O)NC(CNC(=O)N[C@@H](CCCC(NC(=O)OC(C)(C)C)C(=O)O)C(=O)N[C@H](C)C(=O)O)C(=O)O (some centres unmarked) | 204 ± 9 CFU/100,000 Bone Marrow Cells
* CCCCCCC(=O)NC(CNC(=O)N[C@@H](CCCC(N)C(=O)OC)C(=O)N[C@H](C)C(=O)OC)C(=O)O (some centres unmarked) | 108 ± 11 CFU/100,000 Bone Marrow Cells
* CCCCCCC(=O)N[C@H](COC(=O)N[C@@H](CCC[C@@H](N)C(=O)O)C(=O)N[C@H](C)C(=O)O)C(=O)O | 137 ± 15 CFU/100,000 Bone Marrow Cells
* CCCCCCC(=O)NC(CNC(=O)N[C@@H](CCCC(N)C(=O)OC)C(=O)N[C@H](C)C(=O)OC)C(=O)OCc1ccccc1 (some centres unmarked) | 91 ± 3 CFU/100,000 Bone Marrow Cells
* CCCCCCC(=O)N[C@@H](C(=O)O)[C@H](C)OC(=O)N[C@@H](CCC[C@@H](N)C(=O)O)C(=O)N[C@H](C)C(=O)O | 101 ± 46 CFU/100,000 Bone Marrow Cells

Given the entry CCCCCCC(=O)NC(CNC(=O)N[C@@H](CCCC(NC(=O)OC(C)(C)C)C(=O)OC)C(=O)N[C@H](C)C(=O)OC)C(=O)O (some centres unmarked) , report its measured CSF production, CFU/100,000 Bone Marrow Cells.
69 ± 14 CFU/100,000 Bone Marrow Cells

Query (compound): CCCCCCC(=O)NC(CNC(=O)N[C@@H](CCCC(N)C(=O)O)C(=O)N[C@H](C)C(=O)O)C(=O)O (some centres unmarked) ; field requested: CSF production, CFU/100,000 Bone Marrow Cells
118 ± 15 CFU/100,000 Bone Marrow Cells

What does the record list as CSF production, CFU/100,000 Bone Marrow Cells for CCCCCCC(=O)N[C@@H](C(=O)O)[C@@H](C)OC(=O)N[C@@H](CCC[C@@H](N)C(=O)O)C(=O)N[C@H](C)C(=O)O ?
101 ± 8 CFU/100,000 Bone Marrow Cells
